The values you see were collected from paper PMC3144408.

Molecular target: T1, Rab21 (residues 15–225), recombinant, as used in the affinity and competition measurements (human, UniProt Q9UL25 15-225)
T1 sequence (looked up): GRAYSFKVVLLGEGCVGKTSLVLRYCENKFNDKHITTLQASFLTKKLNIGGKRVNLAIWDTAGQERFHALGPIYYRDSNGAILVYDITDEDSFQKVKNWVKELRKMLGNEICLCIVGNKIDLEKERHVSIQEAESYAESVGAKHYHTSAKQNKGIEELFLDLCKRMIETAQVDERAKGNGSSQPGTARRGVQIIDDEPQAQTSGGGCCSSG
Assay: fluorescence polarisation
Ends that are not written are not given here.
Property label: Kd (µM)
Answer with a number only, understood to be in µM.

Item WKLGFFKRKYEKM (also: EDANS fluorophore coupled, end not given here) [EDANS-conjugated α2-integrin cytoplasmic domain peptide (α2-cons, wild type)] has what recorded Kd?
28
